Experimental Target: 5-HT2 receptors (Rattus norvegicus)
Construct: 5-HT2 Receptors in Rat Cortex in vitro; from tissue; host or cells: rat cortex membranes
Assay Name: Inhibition of ^3 H-Ketanserin Binding to 5-HT2 Receptors in Rat Cortex in vitro
Condition Context: ^3 H-Ketanserin 0,5 nM; rat cortex membranes; read-out: 5-HT2 binding ^3 H ketanserin, IC50
Where a name gives a salt, the structure may show the parent alone.
Metric Name: IC50 (nM)

{"columns": ["Compound", "Value Measured"],
 "data": [
  ["CN(CCOc1cn(-c2ccc(F)cc2)c2ccc(Cl)cc12)CCN1CCNC1=O [Compound 4b, Maleate]", 0.88],
  ["CN(C)CCOc1cn(-c2ccc(F)cc2)c2ccc(C#N)cc12 [Compound 17a, Hydrochloride]", 21],
  ["CN(C)C(C)(C)COc1cn(-c2ccc(F)cc2)c2ccc(Cl)cc12 [Compound 6c, oxalate]", 42],
  ["CN(C)CCOc1cn(-c2ccc(F)cc2)c2ccc(Br)cc12 [Compound 16a, Hydrochloride]", 7],
  ["Fc1ccc(-n2cc(OCCN3CCOCC3)c3cc(Cl)ccc32)cc1 [Compound 4f, maleate]", 48],
  ["CN(C)CCOc1cn(-c2ccc(F)cc2)c2ccc(Cl)cc12", 4.2],
  ["Fc1ccc(-n2cc(CCCN3CCOCC3)c3cc(Cl)ccc32)cc1 [Compound 3c, maleate]", 310],
  ["O=C1NCCN1CCN1CCC[C@@H]1COc1cn(-c2ccc(F)cc2)c2ccc(Cl)cc12 [Compound 8a, Oxalate]", 49]
]}

====

Experimental Target: 5-HT2 receptors (Rattus norvegicus)
Construct: 5-HT2 Receptors in Rat Cortex in vitro; from tissue; host or cells: rat cortex membranes
Assay Name: Inhibition of ^3 H-Ketanserin Binding to 5-HT2 Receptors in Rat Cortex in vitro
Structures can show the parent of a compound that is named as a salt.
Metric Name: IC50 (nM)

{"columns": ["Compound", "Experimental Target", "Value Measured"],
 "data": [
  ["Fc1ccc(-n2cc(OCCN3CCCCC3)c3ccc(Cl)cc32)cc1", "5-HT2 receptors (Rattus norvegicus)", 35],
  ["Fc1ccc(-n2cc(OCCN3CCCC3)c3ccc(Cl)cc32)cc1", "5-HT2 receptors (Rattus norvegicus)", 30],
  ["CN(C)CCOc1c(CO)n(-c2ccc(F)cc2)c2ccc(Cl)cc12 [Compound 9a, Hydrochloride]", "5-HT2 receptors (Rattus norvegicus)", 38]
]}

====

Experimental Target: 5-HT2 receptors (Rattus norvegicus)
Construct: 5-HT2 Receptors in Rat Cortex in vitro; from tissue; host or cells: rat cortex membranes
Assay Name: Inhibition of ^3 H-Ketanserin Binding to 5-HT2 Receptors in Rat Cortex in vitro
Condition Context: ^3 H-Ketanserin 0,5 nM; rat cortex membranes; read-out: 5-HT2 binding ^3 H ketanserin, IC50
pIC50: −log10 of the molar value. Structures can show the parent of a compound that is named as a salt.
Please mark label 1 if the recorded pIC50 is equal to or greater than 8, and label 0 if it falls below.

{"columns": ["Compound", "Experimental Target", "Class Name"],
 "data": [
  ["CN(CCc1cn(-c2ccc(F)cc2)c2ccc(Cl)cc12)CCN1CCNC1=O [Compound 4v, maleate]", "5-HT2 receptors (Rattus norvegicus)", "label 1"],
  ["CN(C)CCSc1cn(-c2ccc(F)cc2)c2ccc(Cl)cc12 [Compound 4q, hydrochloride]", "5-HT2 receptors (Rattus norvegicus)", "label 0"],
  ["CN(C)CCCc1cn(-c2ccc(F)cc2)c2ccc(Cl)cc12 [Compound 3a, fumarate]", "5-HT2 receptors (Rattus norvegicus)", "label 0"],
  ["CN(CCN1CCNC1=O)Cc1cn(-c2ccc(F)cc2)c2ccc(Cl)cc12", "5-HT2 receptors (Rattus norvegicus)", "label 0"],
  ["C[C@@H](CN(C)CCOc1cn(-c2ccc(F)cc2)c2ccc(Cl)cc12)N1CCNC1=O [Compound 8b, oxalate]", "5-HT2 receptors (Rattus norvegicus)", "label 0"],
  ["Fc1ccc(-n2cc(CCN3CCOCC3)c3cc(Cl)ccc32)cc1 [Compound 14c, fumarate]", "5-HT2 receptors (Rattus norvegicus)", "label 0"]
]}

====

Experimental Target: dopamine D2 receptors (Rattus norvegicus)
Assay Name: biochemical
Format: binding
Structures can show the parent of a compound that is named as a salt.
Metric Name: IC50 (nM)

{"columns": ["Compound", "Metric Name", "Output Unit", "Value Measured"],
 "data": [
  ["CN(CCSc1cn(-c2ccc(F)cc2)c2ccc(Cl)cc12)CCN1CCNC1=O", "IC50", "nM", 770],
  ["Fc1ccc(-n2cc(CCN3CCOCC3)c3cc(Cl)ccc32)cc1 [Compound 14c, fumarate]", "IC50", "nM", 54],
  ["CNCCc1cn(-c2ccc(F)cc2)c2ccc(Cl)cc12 [Compound 15a, Maleate]", "IC50", "nM", 24]
]}

====

Listed here: items and their measured log10 IC50.
Experimental Target: dopamine D2 receptors (Rattus norvegicus)
Assay Name: biochemical
Assay type: binding
Condition Context: read-out: Dopamin D2 binding ^3 H spiroperidol, IC50
Where a name gives a salt, the structure may show the parent alone.
Metric Name: log10 IC50 (log10 of the value in nM)

{"columns": ["Compound", "log10 IC50"],
 "data": [
  ["O=C1NCCN1CCN1CCC[C@@H]1COc1cn(-c2ccc(F)cc2)c2ccc(Cl)cc12 [Compound 8a, Oxalate]", 0.91],
  ["CN(CCCN1CCNC1=O)CCc1cn(-c2ccc(F)cc2)c2ccc(Cl)cc12 [Compound 4u, hydrochloride]", 1.28],
  ["C[C@@H](COc1cn(-c2ccc(F)cc2)c2ccc(Cl)cc12)N(C)C [Compound 6a, Oxalate]", 0.74],
  ["CC(C)N1CCN(CCN(C)CCOc2cn(-c3ccc(F)cc3)c3cc(Cl)ccc23)C1=O [Compound 4i, oxalate]", 2.08],
  ["CN(C)CCOc1cn(-c2ccc(F)cc2)c2ccc(Br)cc12 [Compound 16a, Hydrochloride]", 0.79],
  ["C[C@H](COc1cn(-c2ccc(F)cc2)c2ccc(Cl)cc12)N(C)C [Compound 6b, oxalate]", 1.57],
  ["Cc1c(OCCN(C)C)c2cc(Cl)ccc2n1-c1ccc(F)cc1 [Compound 10, Oxalate]", 1.92],
  ["CN(C)C(C)(C)COc1cn(-c2ccc(F)cc2)c2ccc(Cl)cc12 [Compound 6c, oxalate]", 2.52]
]}

====

Experimental Target: 5-HT2 receptors (Rattus norvegicus)
Construct: 5-HT2 Receptors in Rat Cortex in vitro; from tissue; host or cells: rat cortex membranes
Assay Name: Inhibition of ^3 H-Ketanserin Binding to 5-HT2 Receptors in Rat Cortex in vitro
Condition Context: read-out: 5-HT2 binding ^3 H ketanserin, IC50; ^3 H-Ketanserin 0,5 nM; rat cortex membranes

{"columns": ["Compound", "IC50 [nM]"],
 "data": [
  ["CN1CCCC1COc1cn(-c2ccc(F)cc2)c2ccc(Cl)cc12 (stereo in doubt)", 8.2]
]}

====

Experimental Target: dopamine D2 receptors (Rattus norvegicus, UniProt P61169)
Sequence (P61169 whole entry): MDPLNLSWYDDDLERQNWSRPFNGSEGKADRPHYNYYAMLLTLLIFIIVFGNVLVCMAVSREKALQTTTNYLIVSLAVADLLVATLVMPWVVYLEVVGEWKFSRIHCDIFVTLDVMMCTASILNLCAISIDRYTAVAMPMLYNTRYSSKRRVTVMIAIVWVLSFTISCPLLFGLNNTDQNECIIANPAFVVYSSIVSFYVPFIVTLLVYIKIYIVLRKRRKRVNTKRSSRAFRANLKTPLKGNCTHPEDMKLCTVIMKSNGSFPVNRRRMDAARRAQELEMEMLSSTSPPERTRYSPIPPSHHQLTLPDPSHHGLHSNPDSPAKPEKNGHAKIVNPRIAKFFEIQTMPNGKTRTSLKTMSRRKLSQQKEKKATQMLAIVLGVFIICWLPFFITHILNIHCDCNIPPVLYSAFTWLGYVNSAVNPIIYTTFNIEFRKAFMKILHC
Assay Name: biochemical
Assay type: binding
Condition Context: read-out: Dopamin D2 binding ^3 H spiroperidol, IC50
Where a name gives a salt, the structure may show the parent alone.
// classify: if (IC50 < 40 nM) met else not met

{"columns": ["Compound", "Class Name"],
 "data": [
  ["CN(C)CCSc1cn(-c2ccc(F)cc2)c2ccc(Cl)cc12 [Compound 4q, hydrochloride]", "not met"],
  ["CNCc1cn(-c2ccc(F)cc2)c2ccc(Cl)cc12 [Compound 13b, hydrochloride]", "met"],
  ["CN(C)CCOc1c(CO)n(-c2ccc(F)cc2)c2ccc(Cl)cc12 [Compound 9a, Hydrochloride]", "not met"],
  ["CN(C)CCOc1cn(-c2ccc(F)cc2)c2ccc(C#N)cc12 [Compound 17a, Hydrochloride]", "met"],
  ["CN(C)CCc1cn(-c2ccc(F)cc2)c2ccc(Cl)cc12 [Compound 14b, maleate]", "met"],
  ["C[C@@H](CN(C)CCOc1cn(-c2ccc(F)cc2)c2ccc(Cl)cc12)N1CCNC1=O [Compound 8b, oxalate]", "met"]
]}

====

Experimental Target: 5-HT2 receptors (Rattus norvegicus, UniProt P14842)
Construct: 5-HT2 Receptors in Rat Cortex in vitro; from tissue; host or cells: rat cortex membranes
Sequence (P14842 whole entry): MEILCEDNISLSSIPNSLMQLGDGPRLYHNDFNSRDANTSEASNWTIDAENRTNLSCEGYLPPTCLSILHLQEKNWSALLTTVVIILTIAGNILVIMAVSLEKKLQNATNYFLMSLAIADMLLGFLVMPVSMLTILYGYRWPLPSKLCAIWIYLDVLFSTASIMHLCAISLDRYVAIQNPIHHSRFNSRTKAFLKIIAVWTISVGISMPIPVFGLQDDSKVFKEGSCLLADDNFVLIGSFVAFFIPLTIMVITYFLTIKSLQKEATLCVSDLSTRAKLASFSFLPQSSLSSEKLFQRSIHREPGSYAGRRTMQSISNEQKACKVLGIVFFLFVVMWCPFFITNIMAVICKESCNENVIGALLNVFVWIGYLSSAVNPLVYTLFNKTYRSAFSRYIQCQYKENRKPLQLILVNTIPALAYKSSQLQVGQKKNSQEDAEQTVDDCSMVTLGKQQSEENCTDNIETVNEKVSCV
Assay Name: Inhibition of ^3 H-Ketanserin Binding to 5-HT2 Receptors in Rat Cortex in vitro
Condition Context: ^3 H-Ketanserin 0,5 nM; rat cortex membranes; read-out: 5-HT2 binding ^3 H ketanserin, IC50
pIC50: −log10 of the molar value. Where a name gives a salt, the structure may show the parent alone.
Metric Name: pIC50

{"columns": ["Compound", "Metric Name", "Value Measured"],
 "data": [
  ["C#CCN(CCOc1cn(-c2ccc(F)cc2)c2ccc(Cl)cc12)CCN1CCNC1=O", "pIC50", 6.66],
  ["CNC(=O)C1CCN(CCOc2cn(-c3ccc(F)cc3)c3ccc(Cl)cc23)CC1", "pIC50", 7.55],
  ["CNCc1cn(-c2ccc(F)cc2)c2ccc(Cl)cc12 [Compound 13b, hydrochloride]", "pIC50", 7.68],
  ["CN(C)CCOc1cn(-c2ccc(F)cc2)c2cc(Cl)ccc12", "pIC50", 7.77],
  ["C[C@@H](COc1cn(-c2ccc(F)cc2)c2ccc(Cl)cc12)N(C)C [Compound 6a, Oxalate]", "pIC50", 8.13],
  ["CN(CCCN1CCNC1=O)CCc1cn(-c2ccc(F)cc2)c2ccc(Cl)cc12 [Compound 4u, hydrochloride]", "pIC50", 9.00],
  ["Fc1ccc(-n2cc(OCCN3CCCCC3)c3cc(Cl)ccc32)cc1", "pIC50", 8.23],
  ["C[C@H](COc1cn(-c2ccc(F)cc2)c2ccc(Cl)cc12)N(C)C [Compound 6b, oxalate]", "pIC50", 7.68],
  ["CN(C)Cc1cn(-c2ccc(F)cc2)c2ccc(Cl)cc12 [Compound 13a, Maleate]", "pIC50", 7.92],
  ["CN(CCSc1cn(-c2ccc(F)cc2)c2ccc(Cl)cc12)CCN1CCNC1=O", "pIC50", 7.07],
  ["CN1CCC[C@H]1COc1cn(-c2ccc(F)cc2)c2ccc(Cl)cc12", "pIC50", 7.74],
  ["CN(CCCc1cn(-c2ccc(F)cc2)c2ccc(Cl)cc12)CCN1CCNC1=O [Compound 3b, fumarate]", "pIC50", 8.11],
  ["CN(CCOc1cn(-c2ccc(F)cc2)c2cc(Cl)ccc12)CCN1CCNC1=O", "pIC50", 8.70],
  ["O=C1NCCN1CCC1CCN(CCOc2cn(-c3ccc(F)cc3)c3ccc(Cl)cc23)CC1", "pIC50", 7.68],
  ["CNCCc1cn(-c2ccc(F)cc2)c2ccc(Cl)cc12 [Compound 15a, Maleate]", "pIC50", 7.77],
  ["Cc1c(OCCN(C)C)c2cc(Cl)ccc2n1-c1ccc(F)cc1 [Compound 10, Oxalate]", "pIC50", 7.96],
  ["CN(C)CCc1cn(-c2ccc(F)cc2)c2ccc(Cl)cc12 [Compound 14b, maleate]", "pIC50", 8.05]
]}
